assayedTarget: FBW7^ARG+pCycE (Homo sapiens, UniProt Q969H0, R505L)
Construct: GST (TEV site and flexible linker) (N, cleaved yes); made in house; host or cells: SF9 insect cells (baculovirus)
Sequence (Q969H0 64-707 R505L): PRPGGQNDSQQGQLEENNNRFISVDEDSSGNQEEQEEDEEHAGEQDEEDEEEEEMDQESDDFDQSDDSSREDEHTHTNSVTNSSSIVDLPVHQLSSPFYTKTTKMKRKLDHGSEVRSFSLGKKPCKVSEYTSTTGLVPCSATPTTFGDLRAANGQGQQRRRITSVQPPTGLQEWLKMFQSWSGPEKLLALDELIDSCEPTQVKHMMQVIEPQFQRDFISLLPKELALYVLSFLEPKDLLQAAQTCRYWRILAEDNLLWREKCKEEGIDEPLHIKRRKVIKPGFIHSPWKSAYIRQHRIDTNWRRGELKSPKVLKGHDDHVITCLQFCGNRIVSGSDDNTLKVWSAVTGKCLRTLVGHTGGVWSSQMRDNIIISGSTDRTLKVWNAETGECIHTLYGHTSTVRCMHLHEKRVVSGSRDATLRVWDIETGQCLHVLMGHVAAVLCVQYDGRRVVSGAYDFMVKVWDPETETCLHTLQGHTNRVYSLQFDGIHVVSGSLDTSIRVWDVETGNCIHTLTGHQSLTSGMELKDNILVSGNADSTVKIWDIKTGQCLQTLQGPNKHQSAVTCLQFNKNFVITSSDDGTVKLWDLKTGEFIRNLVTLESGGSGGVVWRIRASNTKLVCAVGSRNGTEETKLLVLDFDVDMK
Sequence (P63208 2-163 partner): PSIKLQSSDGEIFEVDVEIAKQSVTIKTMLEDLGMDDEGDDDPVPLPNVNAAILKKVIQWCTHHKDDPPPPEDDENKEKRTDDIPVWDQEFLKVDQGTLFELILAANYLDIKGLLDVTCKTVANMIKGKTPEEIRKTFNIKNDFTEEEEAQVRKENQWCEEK
experiment: FBW7^ARG-cyclin E agonist ALPHAscreen (primary PRUN, confirmation CRUN1, dose-response DRUN)
Type: binding
setupConditions: primary screen, 1536-well, 26.1 μM, FBW7^ARG + pCycE degron peptide; high control wt-FBW7+pCycE; read-out: FBW7 ACT PRUN % Response
Measured activation at 26.1 µM, listed per entry.
Your answer is read as %, so omit the unit and give the number.

{"molecule": "O=C(Cc1ccc(Br)cc1)N1CCC(c2nc(O)c3cnccc3n2)C1.O=C(O)C(F)(F)F (centres unmarked)", "activation at 26.1 µM / %": 2.32}
{"molecule": "Cc1cccc(NC(=O)N2CCC(c3nnc(C4CC4)s3)CC2)c1", "activation at 26.1 µM / %": 3.13}
{"molecule": "CCSCCOC(=O)C1=C(C)NC2=C(C(=O)CC(c3ccccc3)C2)C1c1ccc(OC)cc1OC (centres unmarked)", "activation at 26.1 µM / %": 2.28}
{"molecule": "Cc1ccc(-c2nnc(N3CCN(C(=O)c4ccco4)CC3)c3ccccc23)cc1", "activation at 26.1 µM / %": 2.28}
{"molecule": "O=C(Nc1ccc2c(c1)OCO2)N1CCC(c2nnc(C3CC3)s2)CC1", "activation at 26.1 µM / %": 2.62}

Quick one: activation at 26.1 µM of CCOc1ccc(Br)cc1C1C2=C(CCCC2=O)N(CC(=O)O)C2=C1C(=O)CCC2 ? 1.93

Quick one: activation at 26.1 µM of Cc1cccc(CC(=O)Nc2cnn(-c3cccc(C(=O)N4CCNC(=O)CC4)c3)c2)c1 ? 4.34

Quick one: activation at 26.1 µM of CC1=C(C(=O)OC(C)C)C(c2ccncc2)C2=C(CC(c3ccccc3)CC2=O)N1 (centres unmarked) ? 2.06

* * *

assayedTarget: FBW7^ARG+pCycE (Homo sapiens, UniProt Q969H0, R505L)
Construct: GST (TEV site and flexible linker) (N, cleaved yes); made in house; host or cells: SF9 insect cells (baculovirus)
experiment: FBW7^ARG-cyclin E agonist ALPHAscreen (primary PRUN, confirmation CRUN1, dose-response DRUN)
Format: binding
setupConditions: primary screen, 1536-well, 26.1 μM, FBW7^ARG + pCycE degron peptide; high control wt-FBW7+pCycE; read-out: FBW7 ACT PRUN % Response
Measured activation at 26.1 µM, listed per entry.
Your answer is read as %, so omit the unit and give the number.

Example entries begin here.
{"molecule": "NC(c1nc2cc(-c3ccncc3)cnc2[nH]1)c1ccc(F)cc1F.O=C(O)C(F)(F)F (centres unmarked) [SR-00000003416-1]", "reportedEndpoint": "activation at 26.1 µM", "valueUnits": "%", "recordedMeasurement": 3.51}
{"molecule": "CCN(CC)c1ccc2c(c1)OC(N)=C(C#N)C2c1ccccc1 (centres unmarked) [SR-01000320053-1]", "reportedEndpoint": "activation at 26.1 µM", "valueUnits": "%", "recordedMeasurement": 3.43}

Quick one: activation at 26.1 µM of CC(=O)NCC(c1cccs1)S(=O)(=O)c1ccc(C)cc1 (centres unmarked) [SR-01000023077-1] ? 1.85

Quick one: activation at 26.1 µM of COc1ccc(SCC(=O)NNC(=S)Nc2ccccc2)cc1 [SR-01000526835-1] ? 2.07

Quick one: activation at 26.1 µM of CCOC(=O)C1CCN(C(=O)Nc2ccc(NC(=O)C3CCN(C(=O)OCC)CC3)cc2)CC1 [SR-01000451467-1] ? 6.08
